Entries annotated with measured target mRNA inhibition
Biological target: IRF5
Conditions: ASO, KARPAS-229, 4 µM
After the bases stand the sugars from the 5' end (letter, count) and the backbone: PS all phosphorothioate, else s phosphorothioate and o phosphodiester by linkage. Methylation of C is not given here. e = 2'-O-(2-methoxyethyl) (MOE); k = constrained ethyl (cEt); d = 2'-deoxy (DNA)
Test Readout: target mRNA inhibition (%)

{"columns": ["Sequence Data", "Observed Result"],
 "data": [
  ["GGAGTGAGACGAGCAA (sugars kkddddddddkekekk, PS)", 38],
  ["AGGAGTGAGACGAGCA (sugars kkkddddddddkekek, PS)", 24],
  ["ATCACCACTGTGTACC (sugars kdddddddddkekeke, PS)", 0],
  ["ACCATTCTATGCCTTT (sugars kkddddddddddkeke, PS)", 51],
  ["CAATGCAACATCCATC (sugars k3 d10 k3, PS)", 0],
  ["CATTCTATGCCTTTTA (sugars kkddddddddkekekk, PS)", 56],
  ["ATCACCACTGTGTACC (sugars k3 d10 k3, PS)", 11],
  ["AGCTTGGTCTTGACCT (sugars kdddddddddkekeke, PS)", 14],
  ["TTCTTGGACTCTCAAG (sugars kddddddddddkekek, PS)", 0],
  ["GTCTTTGAGGTCTGGG (sugars kdddddddddkekeke, PS)", 33],
  ["TATCTCCGTCCTGGCT (sugars kdddddddddkekeke, PS)", 0],
  ["TACCCAATGCAACATC (sugars k3 d10 k3, PS)", 0],
  ["CTTGGTCTTGACCTCC (sugars kkkdddddddddkeke, PS)", 15],
  ["CATTCCATATACACAC (sugars kkdddddddddkekek, PS)", 54],
  ["CCACTGTGTACCCCAT (sugars kkddddddddddkeke, PS)", 19],
  ["TGCACTGACACAGGCG (sugars k2 d9 e3 k2, PS)", 18],
  ["TCATGAGTAATAGGAG (sugars k3 d10 k3, PS)", 11],
  ["CCTTCTGCAGGGAGTC (sugars kkkddddddddkdkdk, PS)", 0],
  ["TATTTCTGCTCCAGGT (sugars kkdddddddddkdkdk, PS)", 27],
  ["CCCAATGCAACATCCA (sugars kkkddddddddkekek, PS)", 0],
  ["AGGGTGAGTAGGACGA (sugars k3 d10 k3, PS)", 19],
  ["TTATTTCTGCTCCAGG (sugars kkkdddddddddkeke, PS)", 43],
  ["GTGAGTCTCAAACCAG (sugars kkkddddddddkekek, PS)", 0],
  ["GGTCTGGCCCTTTTGG (sugars kkddddddddkekekk, PS)", 0],
  ["CGGTCTTTGAGGTCTG (sugars kkkdddddddddkeke, PS)", 38],
  ["AGCTTGGTCTTGACCT (sugars kkdddddddddkekek, PS)", 8],
  ["AGGTTCTTGGACTCTC (sugars kkddddddddddkeke, PS)", 41],
  ["AATTTTGTGACTGTAT (sugars k3 d10 k3, PS)", 0],
  ["GGAGTGAGACGAGCAA (sugars k3 d9 k3 e1, PS)", 33],
  ["GCACTGACACAGGCGG (sugars kdddddddddkekeke, PS)", 0],
  ["GATGGTGTTATCTCCG (sugars kkdddddddddkekek, PS)", 0],
  ["GGTGTATTTCCCTGTC (sugars kekdddddddddeekk, PS)", 5],
  ["CACTGACACAGGCGGA (sugars kkdddddddddkekek, PS)", 0],
  ["GTCTGGCCCTTTTGGA (sugars k2 d9 e3 k2, PS)", 0],
  ["CCACTGTGTACCCCAT (sugars kkdddddddddkdkdk, PS)", 54],
  ["GCTTGGTCTTGACCTC (sugars k2 d9 e3 k2, PS)", 10],
  ["CACATCTCCACATCAG (sugars kdddddddddkekeke, PS)", 2]
]}

---

Biological target: APOL1
Conditions: ASO, A431, 0.25 µM
After the bases stand the sugars from the 5' end (letter, count) and the backbone: PS all phosphorothioate, else s phosphorothioate and o phosphodiester by linkage. Methylation of C is not given here. e = 2'-O-(2-methoxyethyl) (MOE); k = constrained ethyl (cEt); d = 2'-deoxy (DNA)
Threshold rule: target mRNA inhibition greater than or equal to 70% is criterion met; below that, criterion not met.

{"columns": ["Sequence Data", "Class"],
 "data": [
  ["TTTGTAAGTGCAACCA (sugars kkdddddkekeddddd, PS)", "criterion met"],
  ["TGTTATATTTGATCCT (sugars kkdddddkekeddddd, PS)", "criterion met"],
  ["AGATGGGTACTTCTGT (sugars k4 d9 k3, PS)", "criterion met"],
  ["ACTTCTGTTAGATACA (sugars k4 d9 k3, PS)", "criterion met"],
  ["CGCAATGCTGACTTGG (sugars kkdddddkekeddddd, PS)", "criterion met"],
  ["AGCTTTAAACTCAGGT (sugars kdddddkekekddddd, PS)", "criterion met"],
  ["CAGCTATGGAAATGCC (sugars k4 d9 k3, PS)", "criterion not met"],
  ["CCTTATGCTTACTCCA (sugars k4 d9 k3, PS)", "criterion met"],
  ["CATTCAGAATTTCCAC (sugars k3 d4 k3 e1 d5, PS)", "criterion not met"],
  ["TCAACACATCATTGGG (sugars k4 d9 k3, PS)", "criterion met"],
  ["CTTTATACCAGTGTCT (sugars k3 d10 k3, PS)", "criterion not met"],
  ["ACTTTACATGCACGAT (sugars kkdddddddddekeke, PS)", "criterion not met"],
  ["ATTCTATTGGGCCTCA (sugars k4 d9 k3, PS)", "criterion not met"],
  ["AGCTTTAAACTCAGGT (sugars kkdddddkekeddddd, PS)", "criterion met"],
  ["GCTAATTTTCTGACTG (sugars k3 d4 k3 e1 d5, PS)", "criterion met"],
  ["TACTTCTGTTAGATAC (sugars k4 d9 k3, PS)", "criterion met"],
  ["ATTCTCATGGTACAGG (sugars kkkddddkekeddddd, PS)", "criterion met"],
  ["GAACGCAATGCTGACT (sugars k3 d10 k3, PS)", "criterion not met"],
  ["TCATAGATACTCCTCA (sugars k3 d10 k3, PS)", "criterion not met"],
  ["GCAATGCTGACTTGGC (sugars kkddddkekekkdddd, PS)", "criterion not met"],
  ["CAGATGTGTTTAGGCA (sugars k4 d9 k3, PS)", "criterion met"],
  ["TCCAGATGTGTTTAGG (sugars k4 d9 k3, PS)", "criterion met"],
  ["AATTTTATGGAACCTC (sugars k3 d10 k3, PS)", "criterion met"],
  ["GCTAATTTTCTGACTG (sugars k2 d4 e3 k2 d5, PS)", "criterion met"],
  ["CAGTCAGCAGGAGTAG (sugars k4 d9 k3, PS)", "criterion not met"],
  ["TCCGTCAATATATTCT (sugars k3 d10 k3, PS)", "criterion met"],
  ["GCTTTAAACTCAGGTG (sugars kkddddekekeddddd, PS)", "criterion not met"],
  ["AAGCTTTAAACTCAGG (sugars kkddddekekeddddd, PS)", "criterion met"]
]}

---

Biological target: APOL1
Conditions: ASO, A431, 0.0156 µM
After the bases stand the sugars from the 5' end (letter, count) and the backbone: PS all phosphorothioate, else s phosphorothioate and o phosphodiester by linkage. Methylation of C is not given here. e = 2'-O-(2-methoxyethyl) (MOE); k = constrained ethyl (cEt); d = 2'-deoxy (DNA)
Test Readout: target mRNA inhibition (%)

{"columns": ["Sequence Data", "Test Readout", "Observed Result"],
 "data": [
  ["GTGTATTTCTTGATGT (sugars k2 d4 e3 k2 d5, PS)", "target mRNA inhibition", 18],
  ["ATTCTCATGGTACAGG (sugars k3 d4 k3 e1 d5, PS)", "target mRNA inhibition", 17],
  ["GCAATGCTGACTTGGC (sugars kkddddkekekkdddd, PS)", "target mRNA inhibition", 5],
  ["AAGCTTTAAACTCAGG (sugars kkddddekekeddddd, PS)", "target mRNA inhibition", 20],
  ["CATTCAGAATTTCCAC (sugars k3 d4 k3 e1 d5, PS)", "target mRNA inhibition", 5],
  ["GAACGCAATGCTGACT (sugars k2 d4 e3 k2 d5, PS)", "target mRNA inhibition", 20],
  ["TGTTATATTTGATCCT (sugars kkdddddkekeddddd, PS)", "target mRNA inhibition", 33],
  ["TATTTCTTGATGTGGT (sugars kkddddkekekddddd, PS)", "target mRNA inhibition", 44],
  ["TTTGTAAGTGCAACCA (sugars kekddddeekkddddd, PS)", "target mRNA inhibition", 21],
  ["AGCTTTAAACTCAGGT (sugars kdddddkekekddddd, PS)", "target mRNA inhibition", 14],
  ["TTATATTTGATCCTCA (sugars kkddddkdkdkddddd, PS)", "target mRNA inhibition", 15]
]}

---

Molecular target: DGAT2
Details: ASO, HepG2, 10 µM
After the bases stand the sugars from the 5' end (letter, count) and the backbone: PS all phosphorothioate, else s phosphorothioate and o phosphodiester by linkage. Methylation of C is not given here. e = 2'-O-(2-methoxyethyl) (MOE); d = 2'-deoxy (DNA)
Entries annotated with measured target mRNA inhibition

{"columns": ["Sequence Data", "target mRNA inhibition"],
 "data": [
  ["GTGCTCTGTGGGCTCCTCCA (sugars e5 d10 e5, PS)", "83%"],
  ["GCACATCTCTTCCATCTCCA (sugars e5 d10 e5, PS)", "92%"],
  ["CCAGGGCCTCCATGTACATG (sugars e3 d14 e3, PS)", "59%"],
  ["GGCAGAGAAACTGGTCCTGC (sugars e5 d10 e5, PS)", "81%"],
  ["CAGGACCTCAGGGCTGGCCC (sugars e5 d10 e5, PS)", "71%"],
  ["CGTGAGCTGGTGTTCTACAA (sugars e5 d10 e5, PS)", "74%"],
  ["GCTCATGAGAAGCTTAGAAG (sugars e5 d10 e5, PS)", "86%"],
  ["TTAGGCATGCTTCCTCCCAC (sugars e5 d10 e5, PS)", "68%"],
  ["GGACACCTGGAGCTGCGGCC (sugars e5 d10 e5, PS)", "73%"],
  ["TCACCAGATTGTTGTGGGAA (sugars e5 d10 e5, PS)", "78%"],
  ["TGGATAGTCGATTTACCAGA (sugars e5 d10 e5, PS)", "90%"]
]}
